Target: NOS2 (iNOS) (Homo sapiens)
Construct: made in house
Assay: NOS2 enzymatic activity: conversion of 14-C-L-arginine to L-citrulline
Format: biochemical
Conditions: purified recombinant NOS2

{"compound": "C/C1=C2/[N-][C@H]([C@H](CC(N)=O)[C@@]2(C)CCC(=O)NC[C@@H](C)O)[C@]2(C)N=C(/C(C)=C3N=C(/C=C4N=C1[C@@H](CCC(N)=O)C\\4(C)C)[C@@H](CCC(N)=O)[C@]\\3(C)CC(N)=O)[C@@H](CCC(N)=O)[C@]2(C)CC(N)=O.[Co+3] [Cobinamide]", "target": "NOS2 (iNOS) (Homo sapiens)", "NOS2 inhibition (in words)": "potent"}
{"compound": "C/C1=C2/[N-][C@H]([C@H](CC(N)=O)[C@@]2(C)CCC(=O)NC[C@@H](C)OP(=O)([O-])O[C@H]2[C@@H](O)[C@@H](n3cnc4cc(C)c(C)cc43)O[C@@H]2CO)[C@]2(C)N=C(/C(C)=C3N=C(/C=C4N=C1[C@@H](CCC(N)=O)C\\4(C)C)[C@@H](CCC(N)=O)[C@]\\3(C)CC(N)=O)[C@@H](CCC(N)=O)[C@]2(C)CC(N)=O.[Co+3].[OH-] [Hydroxocobalamin]", "target": "NOS2 (iNOS) (Homo sapiens)", "NOS2 inhibition (in words)": "potent"}
{"compound": "C/C1=C2/[N-]C([C@H](CC(N)=O)[C@@]2(C)CCC(=O)NCC(C)O)[C@]2(C)N=C(/C(C)=C3N=C(/C=C4N=C1[C@@H](CCC(N)=O)C\\4(C)C)[C@@H](CCC(N)=O)[C@]\\3(C)CC(N)=O)[C@@H](CCC(N)=O)[C@]2(C)CC(N)=O.[C-]#N.[C-]#N.[Co] (stereo partly shown) [Dicyanocobinamide]", "target": "NOS2 (iNOS) (Homo sapiens)", "NOS2 inhibition (in words)": "potent"}
